Molecular target: UniProt A0B8F1
Sequence (A0B8F1 whole entry): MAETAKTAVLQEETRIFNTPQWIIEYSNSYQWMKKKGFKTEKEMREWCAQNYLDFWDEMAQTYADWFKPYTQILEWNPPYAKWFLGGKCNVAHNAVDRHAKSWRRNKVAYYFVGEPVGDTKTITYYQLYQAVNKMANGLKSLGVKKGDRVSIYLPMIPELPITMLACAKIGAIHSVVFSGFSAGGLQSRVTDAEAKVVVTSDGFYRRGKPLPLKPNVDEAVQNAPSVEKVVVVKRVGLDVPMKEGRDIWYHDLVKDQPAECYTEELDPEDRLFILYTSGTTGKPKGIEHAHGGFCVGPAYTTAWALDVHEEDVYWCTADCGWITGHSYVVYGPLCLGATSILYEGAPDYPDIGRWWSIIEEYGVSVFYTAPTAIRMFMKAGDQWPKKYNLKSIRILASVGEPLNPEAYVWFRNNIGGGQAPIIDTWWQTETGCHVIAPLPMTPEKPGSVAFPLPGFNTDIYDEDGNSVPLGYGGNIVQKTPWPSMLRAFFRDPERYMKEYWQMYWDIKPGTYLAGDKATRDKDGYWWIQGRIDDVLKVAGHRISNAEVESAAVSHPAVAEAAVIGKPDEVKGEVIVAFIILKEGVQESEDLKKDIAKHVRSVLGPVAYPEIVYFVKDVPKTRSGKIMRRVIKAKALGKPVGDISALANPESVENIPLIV
value_kind: IC50

Q) Fill in the blank: the reported IC50 of "O=P(O)(O)OP(=O)(O)O" is ____.
A) ~250 µM
